Ref: patent US20220259593A1

# key: entry, value: Mean relative activity
System: K562 CRISPRi cells
Experiment: Constant region variant library pooled growth screen, K562
Assay type: cell-based, human
Settings: sgRNA constant region variants; activity relative to the unmodified constant region cr995

molecule	Mean relative activity
cr075 (nucleic acid, listed as DNA, chemistry not fully specified) guide: GTTTCATAGCTAAGCTGGAAACAGCATAGCAAGTTTAAATAAGGCTAGTCCGTTATCAACTTGAAAAAGTGGCACCGAGTCGGTGCT	0.1521
cr173 (nucleic acid, listed as DNA, chemistry not fully specified) guide: GTTTAAGAGCTAAGCTGGAAACAGCATAGCAAGTTTAAATAAAGCTAGTCTGTTATCAACTTGAAAAAGTGGTAGCGAGTCGCTACT	0.3244
cr979 (nucleic acid, listed as DNA, chemistry not fully specified) guide: GTTTAAGAGCTAAGCTGGAAACAGCATAGCAAGTTTAAATAAGGCTAGTCCGGTATCTACTTGAAAAAGTGGCACCGAGTCGGTGCT	0.1765
cr429 (nucleic acid, listed as DNA, chemistry not fully specified) guide: GTTTAAGAGCTAAGCTGGAAACAGCATAGCAAGTTTAAATAAGAATATTTCGTTATCAACTTGAAAAAGTGGCAACGAGTCGTTGCT	0.196
cr180 (nucleic acid, listed as DNA, chemistry not fully specified) guide: GTTTAAGAGCTAAGCTGGAAACAGCATAGCAAGTTTAAATCAGGCTAGTCCGTTATCAACTTGAAAAAGTGGCACCGAGCCGGTGCT	0.208
cr047 (nucleic acid, listed as DNA, chemistry not fully specified) guide: GTTTTAGTGCTAAGCTGGAAACAGCATAGCAAGTTTAAATAAGGCTAGTCCGTTATCAACTTGAAAAAGTGGCACCGAGTCGGTGCT	0.1686
cr605 (nucleic acid, listed as DNA, chemistry not fully specified) guide: GTTTAAGAGCTAAGCTGGAAACAGCATAGCAAGTTTAAATAAGGATATTCCGTTATCAACTTGAAAAAGTGGCACCCAGTGGGTGCT	0.1839
